# Assayed system: Human SARS-CoV-2_Wuhan S (SmT1) (SARS-CoV-2 (Wuhan), UniProt P0DTC2 14-1208)
# Assay remarks: SPR, VHH over immobilised S
For each of the binders below, state its kon.
Answers are plain numbers, in M⁻¹ s⁻¹.

# Binder, kon (M⁻¹ s⁻¹)
data = [
    ("NRCoV2-S2F3 VHH (VHH) VHH: EVQLVQSGGGLVQAGGSLRLSCATSVRILSVPAMGWYRQAPGKEREMVAVITSGGSTNYADSVKGRFTISRDNAKNTVYLQMNSLKLEDTAVYQCNLRDILSQPFWGQGTQVTVSS", 156000),
    ("NRCoV2-MRed20 VHH (VHH) VHH: EVQLVESGGGSVQAGGSLRLSCAASGLSFSSYDMGWFRQAPGKEREFVAAIRESGSGTYYADSVKGRFTISRDNAKNTVYLQVSSLKPEDTAVYTCAAKPPFYGSGTYSTPRAYLYWGQGTQVTVSS", 160000),
    ("NRCoV2-MRed25 VHH (VHH) VHH: EVQLVESGGGLVQAGGSLRLSCAASGHTFSRYGMGWFRQAPGKEREFVAAISWRGDSTYYRDSVNGRFTISRDNAKNTVYLGMNSLKPEDTAVYYCAAEMWGTATIVASRYTYWGQGTQVTVSS", 112000),
]

Attention now turns to another entry.
What does the data say about its kon? Entry: NRCoV2-MRed18 VHH (VHH) VHH: EVQLVESGGGLVQPGGSLRLSCAASTTVFGRNAMGWYRQAPGKERELVATVSDGGTPNYADSVKGRFTISRDNAKNTIYLQMNSLEPEDTAVYYCNYYNYYYGRNFWGQGTQVTVSS
197000
